System: Escherichia coli TOP10
Assay: shrunken log2 fold change of peptide-encoding DNA abundance (4.5 h post-induction vs induction); higher = less antimicrobial activity (less host growth inhibition)
Details: time post-induction: 4.5 h; library: site-saturation at positions 5, 18, 19, 20
Bucketed by reported shrunken log2 fold change, buckets being low = under -0.3, intermediate = from -0.3 up to 0.04, high = 0.04 and over

(Q) Into which bin does this sequence go? `RRIRRRPPRLPRPRPRPYVFPRP`
(A) low

(Q) Field: class (shrunken log2 fold change) — entry: `RRIRNRPPRLPRPRPRPWNSPRP`
(A) intermediate

(Q) Please let me know in which category the item `RRIRFRPPRLPRPRPRPNNIPRP` belongs.
(A) low

(Q) Record `RRIRPRPPRLPRPRPRPGATPRP` — which class?
(A) high

(Q) Sort into band: `RRIRFRPPRLPRPRPRPHYIPRP`
(A) intermediate

(Q) State the class of the sequence shown: `RRIRKRPPRLPRPRPRPHIHPRP`
(A) intermediate

(Q) Just checking, what class would you give `RRIRHRPPRLPRPRPRPYAHPRP` here?
(A) low

(Q) Band for `RRIRHRPPRLPRPRPRPVHYPRP` ?
(A) low

(Q) Band of `RRIRPRPPRLPRPRPRPELLPRP` ?
(A) high

(Q) Exercise: read the entry `RRIRFRPPRLPRPRPRPWKVPRP` and state which class it falls under.
(A) intermediate

(Q) Which bin, given its shrunken log2 fold change, does `RRIRMRPPRLPRPRPRPCVWPRP` occupy?
(A) high

(Q) Which category does the recorded shrunken log2 fold change put `RRIRFRPPRLPRPRPRPLKTPRP` in?
(A) intermediate

(Q) Categorize the following entry: `RRIRVRPPRLPRPRPRPSMNPRP`
(A) high

(Q) Form field 'band' for `RRIRPRPPRLPRPRPRPHCLPRP`
(A) low

(Q) Assign a bin to `RRIRQRPPRLPRPRPRPRSQPRP`
(A) high

(Q) The entry to classify is `RRIRVRPPRLPRPRPRPLYGPRP` ; which class holds it?
(A) low

(Q) Which category does the recorded shrunken log2 fold change put `RRIRQRPPRLPRPRPRPDTWPRP` in?
(A) intermediate

(Q) Which of the defined bands does the recorded shrunken log2 fold change of `RRIRMRPPRLPRPRPRPAQRPRP` sit within?
(A) high

(Q) Just checking, what class would you give `RRIRDRPPRLPRPRPRPDAVPRP` here?
(A) high

(Q) // bin(item) where item = `RRIRRRPPRLPRPRPRPYVKPRP`
(A) intermediate

(Q) Which shrunken log2 fold change category applies to `RRIRLRPPRLPRPRPRPITSPRP` here?
(A) high

(Q) Please indicate the class for `RRIRERPPRLPRPRPRPYEWPRP` based on its shrunken log2 fold change.
(A) intermediate

* * *

Tested on: Escherichia coli TOP10;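 note: peptides expressed intracellularly from a pBAD plasmid library in pooled LB shake-flask culture, induced with 0.3% L-arabinose, DNA abundance read by NGS, three biological replicates, DESeq2 with apeglm shrinkage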
Experiment: shrunken log2 fold change of peptide-encoding DNA abundance (4.5 h post-induction vs induction); higher = less antimicrobial activity (less host growth inhibition)
Settings: time post-induction: 4.5 h; library: site-saturation at positions 5, 18, 19, 20
Classification field: enter Met for shrunken log2 fold change values not below -0.01, Not met for values below it.

(Q) Can `RRIRSRPPRLPRPRPRPGANPRP` be said to have shrunken log2 fold change at or above -0.01?
(A) Met

(Q) # bool: shrunken log2 fold change of `RRIRVRPPRLPRPRPRPLPPPRP` >= -0.01
(A) Met

(Q) For this sequence, is measured shrunken log2 fold change -0.01 or higher? `RRIRYRPPRLPRPRPRPPDPPRP`
(A) Met

(Q) Would you say `RRIRSRPPRLPRPRPRPRHDPRP` shows shrunken log2 fold change at minimum -0.01?
(A) Met

(Q) Item `RRIRSRPPRLPRPRPRPLFRPRP` with shrunken log2 fold change of -0.01 or above?
(A) Not met

(Q) Please check the record `RRIRHRPPRLPRPRPRPTERPRP` and state if its shrunken log2 fold change is at or above -0.01.
(A) Met

(Q) Entry `RRIRSRPPRLPRPRPRPITFPRP` : is its shrunken log2 fold change no less than -0.01?
(A) Not met

(Q) Is reported shrunken log2 fold change greater than or equal to -0.01 here: `RRIRGRPPRLPRPRPRPCIIPRP`
(A) Met

(Q) Kindly determine if shrunken log2 fold change recorded for `RRIRTRPPRLPRPRPRPQTAPRP` is above or exactly -0.01.
(A) Not met

(Q) Evaluate `RRIRARPPRLPRPRPRPHIMPRP` : shrunken log2 fold change at minimum -0.01?
(A) Not met

(Q) // inclusive: shrunken log2 fold change at least -0.01? input: `RRIRMRPPRLPRPRPRPAYQPRP`
(A) Not met

(Q) Does `RRIRHRPPRLPRPRPRPGVTPRP` have a reported shrunken log2 fold change of at least -0.01?
(A) Met

(Q) Say whether `RRIRVRPPRLPRPRPRPHIKPRP` shows shrunken log2 fold change of -0.01 or more.
(A) Not met

(Q) Could you verify whether the entry `RRIRGRPPRLPRPRPRPCHYPRP` shows shrunken log2 fold change of no less than -0.01?
(A) Met

(Q) Reported shrunken log2 fold change at or above -0.01? `RRIRMRPPRLPRPRPRPIQTPRP`
(A) Met

(Q) Determine whether measured shrunken log2 fold change meets or exceeds -0.01 for `RRIRPRPPRLPRPRPRPYNTPRP`
(A) Not met

(Q) Reported shrunken log2 fold change at or above -0.01? `RRIRHRPPRLPRPRPRPHQDPRP`
(A) Not met

(Q) Could you please find out whether `RRIRTRPPRLPRPRPRPTAMPRP` has shrunken log2 fold change that meets -0.01 or exceeds it?
(A) Met

(Q) Given `RRIRVRPPRLPRPRPRPPNVPRP` , state whether its shrunken log2 fold change is at least -0.01.
(A) Not met

(Q) Determine whether measured shrunken log2 fold change meets or exceeds -0.01 for `RRIRFRPPRLPRPRPRPVWMPRP`
(A) Not met

(Q) Does `RRIRKRPPRLPRPRPRPRVTPRP` have a reported shrunken log2 fold change of at least -0.01?
(A) Met

(Q) Is shrunken log2 fold change at least -0.01? Consider `RRIRPRPPRLPRPRPRPSRMPRP`
(A) Not met

(Q) Could you please find out whether `RRIRPRPPRLPRPRPRPPYHPRP` has shrunken log2 fold change that meets -0.01 or exceeds it?
(A) Not met

(Q) Kindly determine if shrunken log2 fold change recorded for `RRIRGRPPRLPRPRPRPYFRPRP` is above or exactly -0.01.
(A) Met

(Q) Identify whether the reported shrunken log2 fold change of the following sequence is -0.01 or greater: `RRIRGRPPRLPRPRPRPELWPRP`
(A) Met

(Q) Kindly determine if shrunken log2 fold change recorded for `RRIRYRPPRLPRPRPRPTKLPRP` is above or exactly -0.01.
(A) Not met

(Q) Can `RRIRTRPPRLPRPRPRPLYNPRP` be said to have shrunken log2 fold change at or above -0.01?
(A) Not met

(Q) State whether the measured shrunken log2 fold change reaches -0.01, counting equality as reaching it, for `RRIRMRPPRLPRPRPRPWHMPRP`
(A) Met
